assay: amyloid nucleation score (Sup35N fusion, yeast selection) (log enrichment); library NNK1; higher = more nucleation; inactive = no reads after selection;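 further: zero at mode of non-aggregating sequences after 7 days selection at 30°C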
Measured quantity: amyloid nucleation score
Just the number, please, no unit attached.

stdin: Consider the substance TVSVANSKWSDTVINMRLDR and give its recorded amyloid nucleation score.
stdout: 5.72

stdin: Answer with the recorded amyloid nucleation score for the substance listed here: NGINSVRKDLLFYNLQR
stdout: 0.107

stdin: Answer with the recorded amyloid nucleation score for the substance listed here: KYFSSNSKYIYDQLIVPSRT
stdout: -0.42

stdin: Query amyloid nucleation score for FCLMMEVGSVLRNLVPVSFR
stdout: -0.122

stdin: Name the recorded amyloid nucleation score of the item CSLTKQRCYFEQLMSGPPCL in your answer.
stdout: -0.329

stdin: Return the recorded amyloid nucleation score value; entry: CFRELPYSLYNC
stdout: -0.666

stdin: Return amyloid nucleation score (reported value) for this substance: VFLHVES
stdout: 1.85

stdin: For SSFYTRFWVGSHMCFAGMPK , write its amyloid nucleation score.
stdout: 0.203

---

experiment: amyloid nucleation score (Sup35N fusion, yeast selection) (log enrichment); library NNK3; higher = more nucleation; inactive = no reads after selection
Measured quantity: amyloid nucleation score

Please review the following examples before continuing.
stdin: Using known records, supply amyloid nucleation score for IVFNGLRSMNRE
stdout: inactive

stdin: State its amyloid nucleation score for this substance: MLFSIICNFGNKFLTYKEFT
stdout: 0.89

stdin: For the substance VNPIERWA , report amyloid nucleation score.
stdout: inactive

stdin: Please report amyloid nucleation score for the following substance: RLSYQYFCQAMRMEGEFWSY
stdout: -0.16

stdin: Indicate the recorded amyloid nucleation score value for this substance: YTLAFECLPSLTMQVRNWMM
stdout: inactive

stdin: In one line, give reported amyloid nucleation score of the entry QYGIKGRRVKCWLCWHGDVE .
stdout: inactive

Continuing:
stdin: Please give measured amyloid nucleation score of the following entry: GGLRNNPKRVIRDEDVQVHM
stdout: inactive

stdin: Give a short answer stating reported amyloid nucleation score for VPGMSAVCKMGLLLDVGVHE .
stdout: inactive

stdin: Consider the substance SFVYVSALVSLHGGFADAKF and give its recorded amyloid nucleation score.
stdout: 0.885

---

Could you please report measured amyloid nucleation score for the items listed next?
test: amyloid nucleation score (Sup35N fusion, yeast selection) (log enrichment); library NNK1; higher = more nucleation; inactive = no reads after selection
When you answer, write just the number.

stdin: Please report the measured amyloid nucleation score for FELGWMYSYKMAKLPWYMTC
stdout: 0.362

stdin: Tell me its amyloid nucleation score given VEPSYMFGYVVDWEHMVLKS as the entry.
stdout: -2.11

stdin: Fill in reported amyloid nucleation score for this entry: VSFRFLMGFVYVKCWSSSLD
stdout: 1.38

stdin: Look up and state reported amyloid nucleation score for LKIEPRC
stdout: -0.512

stdin: Retrieve amyloid nucleation score measured for SMFKGTIWRQHSLS and print it.
stdout: 0.618

stdin: Identify amyloid nucleation score associated with the substance NLVRLILRCSDRAKRFLRAL
stdout: -0.218

stdin: Supply amyloid nucleation score value. Item: QNDTYLI
stdout: 0.022

stdin: Give me measured amyloid nucleation score, please, for this substance: LSFEIFMNVTRPSICHKVSL
stdout: -2.04

stdin: Quickly give me recorded amyloid nucleation score for VSNERSWMRCFFMGSRIAHG
stdout: -0.735

stdin: Hello, please tell me recorded amyloid nucleation score for this one: VSLCVSFFFYRSAVITVYAH
stdout: 0.282

stdin: Consider the substance FTRTLMLMIRACCWHRFQLT . State its measured amyloid nucleation score.
stdout: 0.008

stdin: Entry STYSSWQDTRVFNLAMLSI needs its amyloid nucleation score filled in; supply it.
stdout: -0.68

stdin: Give amyloid nucleation score for EFSLGSPIKWTNHGLVIKGM
stdout: 2.71

stdin: State, in one line, measured amyloid nucleation score of LEKQMNASQFAPPRLLLRKL
stdout: 0.498

stdin: Identify measured amyloid nucleation score associated with IWMLELSGFMKMVQGGHQVG
stdout: 3.06

stdin: // fetch amyloid nucleation score given entry NNYLCAEWFVTGVSTPLTTS
stdout: 0.735

stdin: Answer with the recorded amyloid nucleation score for the substance listed here: VSSYAIYEECNLPGKAGKPC
stdout: -0.213

stdin: # return recorded amyloid nucleation score for input LMEFHLYQMYSLRLVARRWW
stdout: 1.32

stdin: Name the recorded amyloid nucleation score of the item DSTRTDSLYVSACHLLYLAE in your answer.
stdout: 0.178

stdin: Annotate the substance RCKLLIIVIRKDTCLKYCGH with its measured amyloid nucleation score.
stdout: 0.308

stdin: Entry KLRRDSFVFQVKFHLNKGML needs its amyloid nucleation score filled in; supply it.
stdout: -0.384

stdin: Read the entry IVEDSLRFIANPYTILNR and write its reported amyloid nucleation score.
stdout: 0.723

stdin: Retrieve amyloid nucleation score measured for CIYWALGRAMRLPSGTGARG and print it.
stdout: 0.099

stdin: Identify the reported amyloid nucleation score for the following entry. LYCNVISILACFVTTIRGRG
stdout: 3.64

stdin: Fill in reported amyloid nucleation score for this entry: EYSADTIGVIGLGTAPDERR
stdout: -0.239

stdin: Report measured amyloid nucleation score; entry is CYNNSCDKWGWASM
stdout: 1.22

stdin: Indicate its recorded amyloid nucleation score; the substance in question is RVNMWRYI
stdout: 0.295

stdin: Please supply the value of reported amyloid nucleation score for the item YVMDYSD
stdout: 0.096

stdin: Please look at this substance and report its amyloid nucleation score: YSAALRHGQRHKWRSGRKIG
stdout: 0.674

stdin: Look up amyloid nucleation score of GRDSIRCLNTTEASKLYGGL and report it.
stdout: 0.609

stdin: Given the substance LNVGVLGGRLLSGALVNSTM , write its reported amyloid nucleation score.
stdout: 0.396

stdin: Provide amyloid nucleation score value for the following substance: PLAVVVYDNHRRMGHHVRHG
stdout: 0.807

stdin: Note amyloid nucleation score for the substance shown: VLKTWVIDNKSVGEMCNLNG
stdout: 0.556

stdin: // Input: FLVSCYPWVE . Output its amyloid nucleation score only.
stdout: 0.248

---

experiment: amyloid nucleation score (Sup35N fusion, yeast selection) (log enrichment); library NNK3; higher = more nucleation; inactive = no reads after selection
Measured quantity: amyloid nucleation score

Example cases with answers are listed next.
stdin: Tell me amyloid nucleation score reported for SIGNAIS
stdout: inactive

stdin: Given VKSFFSKGSCDNDTNINRRS , respond with its amyloid nucleation score.
stdout: inactive

stdin: Give a short answer stating reported amyloid nucleation score for CWLSWYFATKLGAYWELSNG .
stdout: inactive

stdin: Quick one: give measured amyloid nucleation score for CRSGCQ
stdout: inactive

stdin: State its amyloid nucleation score: LIIVMFPAVCIVFDFNFTVF
stdout: inactive

More entries:
stdin: Please look at this substance and report its amyloid nucleation score: TISIVTWDIVRSKCMRRKVL
stdout: inactive

stdin: Determine its reported amyloid nucleation score: PVDKCRCGGWNLSHLHKLSS
stdout: -0.615

stdin: Respond only with amyloid nucleation score recorded for GYRLRYNFVVFLM
stdout: 1.02

---

test: amyloid nucleation score (Sup35N fusion, yeast selection) (log enrichment); library NNK1; higher = more nucleation; inactive = no reads after selection
Measured quantity: amyloid nucleation score
Answer using only a numeral; do not append any unit.

stdin: State, in one line, measured amyloid nucleation score of VVLQVMFARAWWFF
stdout: 0.185

stdin: Quick one: give measured amyloid nucleation score for PRTLPVLFNLSLKGSSHTYF
stdout: 4.52

stdin: Please list amyloid nucleation score recorded for the substance HMADTRVADCSQLLR
stdout: 0.409

stdin: Determine from records and report amyloid nucleation score for RCFMFSTGEALTNEDRSLRR
stdout: 1.12

stdin: Please list amyloid nucleation score recorded for the substance CTAQTSCILW
stdout: 0.2

stdin: Entry SSVCFGYRAIGTIRHMFSKC needs its amyloid nucleation score filled in; supply it.
stdout: 0.311

stdin: Note down amyloid nucleation score recorded for RDVAMESRVSGYVGVCGSYR
stdout: -0.71

stdin: Please indicate amyloid nucleation score recorded for NVIGISATNASLSLVLISVI
stdout: -0.509

stdin: Name the recorded amyloid nucleation score of the substance listed here: LHTRGLEMFRIGPSCCKWPL
stdout: 1.49

stdin: Report amyloid nucleation score, nothing else, for this substance: SGLGTNKRSTPWYHSRFEGQ
stdout: 0.036

stdin: Look up amyloid nucleation score of FSFISKIIESCYGDFLVGDA and report it.
stdout: -1.21

stdin: Please look at this substance and report its amyloid nucleation score: YNQISLD
stdout: -0.38

stdin: Note down amyloid nucleation score recorded for TSYNIMFQ
stdout: -0.584

stdin: Tell us which amyloid nucleation score value is on record for SVRSVRSNPRFTSHLPCSKK
stdout: -0.413

stdin: Look up and state reported amyloid nucleation score for AFPTIAYMIWVFVDVQLCSE
stdout: 1.25

stdin: Answer with the recorded amyloid nucleation score for the substance listed here: YWWDIRWGEAGSRERRVELG
stdout: 0.078

---

assay: amyloid nucleation score (Sup35N fusion, yeast selection) (log enrichment); library NNK1; higher = more nucleation; inactive = no reads after selection
Measured quantity: amyloid nucleation score

stdin: Report measured amyloid nucleation score; entry is LQAAGLRFGRICLFLDK
stdout: -0.259

stdin: Read off the recorded amyloid nucleation score for DLFSTVFNWMTNCPFKNSW
stdout: -0.32

stdin: Please look at this sequence and report its amyloid nucleation score: RGTDLSSYTSFVC
stdout: 0.28

stdin: Read the entry DLTVRPACAGCRLYSEVILD and write its reported amyloid nucleation score.
stdout: -0.852

stdin: Return amyloid nucleation score (reported value) for this sequence: MQNCISLL
stdout: -0.483

stdin: Entry VFVTGLCSEDVTIYSTM needs its amyloid nucleation score filled in; supply it.
stdout: -2.44

stdin: Tell me measured amyloid nucleation score for GFSNLNSYD please.
stdout: -0.55

stdin: Indicate its recorded amyloid nucleation score; the sequence in question is ENERMTLHCGYFKNMCMFRF
stdout: 1.9

stdin: # return recorded amyloid nucleation score for entry NKQARVRETRVGLTCVGMLG
stdout: -0.321
